# experimentalSystem: Androgen Receptor (Homo sapiens)
# Construct: endogenous in cells; host or cells: VCaP cells
# Sequence (P10275 whole entry): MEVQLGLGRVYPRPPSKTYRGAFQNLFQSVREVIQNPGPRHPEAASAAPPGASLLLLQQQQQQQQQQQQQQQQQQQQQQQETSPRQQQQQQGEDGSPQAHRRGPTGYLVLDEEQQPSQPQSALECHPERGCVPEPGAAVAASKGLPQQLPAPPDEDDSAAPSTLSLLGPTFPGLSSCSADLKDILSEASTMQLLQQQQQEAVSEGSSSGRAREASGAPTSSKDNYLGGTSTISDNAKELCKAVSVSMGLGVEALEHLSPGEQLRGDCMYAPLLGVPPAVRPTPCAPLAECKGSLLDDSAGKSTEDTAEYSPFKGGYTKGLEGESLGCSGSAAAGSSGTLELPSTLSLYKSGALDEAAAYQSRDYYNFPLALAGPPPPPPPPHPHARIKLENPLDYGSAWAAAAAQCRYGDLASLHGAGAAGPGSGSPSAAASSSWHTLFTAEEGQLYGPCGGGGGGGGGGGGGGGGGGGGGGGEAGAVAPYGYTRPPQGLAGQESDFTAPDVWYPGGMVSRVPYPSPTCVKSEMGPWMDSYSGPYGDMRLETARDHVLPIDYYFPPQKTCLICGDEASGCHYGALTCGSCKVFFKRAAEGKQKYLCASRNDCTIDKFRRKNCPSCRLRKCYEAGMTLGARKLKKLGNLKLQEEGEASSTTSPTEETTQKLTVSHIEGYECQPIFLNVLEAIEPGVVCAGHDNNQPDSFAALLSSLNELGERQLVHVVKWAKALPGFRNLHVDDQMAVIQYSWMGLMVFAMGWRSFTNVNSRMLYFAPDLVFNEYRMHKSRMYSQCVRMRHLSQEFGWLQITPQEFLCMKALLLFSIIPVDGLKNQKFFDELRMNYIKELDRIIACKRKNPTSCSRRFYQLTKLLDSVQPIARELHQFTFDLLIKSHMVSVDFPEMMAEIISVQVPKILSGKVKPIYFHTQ
# protocol: Androgen Receptor ELISA assay (PathScan AR ELISA) in VCaP cells: AR degradation, Dmax and DC50
# Assay type: cell-based
# cond: VCaP cells; Table 36; read-out: VCaP DC50
# Method: 1. Androgen Receptor ELISA Assay. The protocols used with VCaP cells are described below. The androgen receptor ELISA assay was performed using PathScan AR ELISA (Cell Signaling Catalog #12850) according to the following assay steps: […]
reportedProperty: DC50

Consider the reported DC50 for these compounds:
compound	experimentalSystem	result
Cc1ncsc1-c1ccc([C@H](C)NC(=O)C2C[C@@H](O)CN2C(=O)C(c2cc(OCCN(C)[C@H](C(=O)NC(C(=O)N3CCN(c4ccc(C(=O)NC5C(C)(C)C(Oc6ccc(C#N)c(Cl)c6)C5(C)C)cc4)CC3)C(C)C)C(C)C)no2)C(C)C)cc1 (some centres unmarked)	Androgen Receptor (Homo sapiens)	< 50 nM
Cc1ncsc1-c1ccc(CNC(=O)[C@@H]2C[C@@H](O)CN2C(=O)[C@@H](NC(=O)COCCN2CCN(c3ccc(C(=O)N[C@H]4C(C)(C)[C@H](Oc5ccc(C#N)c(Cl)c5)C4(C)C)cn3)CC2)C(C)(C)C)cc1	Androgen Receptor (Homo sapiens)	< 50 nM
CC(C)(C)[C@H](NC(=O)COCCN1CCN(c2ccc(C(=O)N[C@H]3C(C)(C)[C@H](Oc4ccc(C#N)c(Cl)c4)C3(C)C)cn2)CC1)C(=O)N1C[C@H](O)C[C@H]1C(=O)NCc1ccc(C2CCC2)cc1	Androgen Receptor (Homo sapiens)	> 501 nM

Data request: Provide Androgen Receptor (Homo sapiens) DC50 reading for Cc1ncsc1-c1ccc(CNC(=O)[C@@H]2C[C@@H](O)CN2C(=O)[C@H](C(C)C)N2Cc3ccccc3C2=O)c(OCCN2CCN(c3ccc(C(=O)N[C@H]4C(C)(C)[C@H](Oc5ccc(C#N)c(C(F)(F)F)c5)C4(C)C)cn3)CC2)c1 .
Data returned: < 50 nM

Data request: Provide Androgen Receptor (Homo sapiens) DC50 reading for Cc1ncsc1-c1ccc([C@H](C)NC(=O)[C@@H]2C[C@H](O)CN2C(=O)[C@@H](NC(=O)COCCN2CCN(c3ccc(C(=O)N[C@H]4C(C)(C)[C@H](Oc5ccc(C#N)c(Cl)c5)C4(C)C)cn3)CC2)C(C)(C)C)cc1 (stereo in doubt) .
Data returned: < 50 nM

Data request: Provide Androgen Receptor (Homo sapiens) DC50 reading for CC(C)[C@@H](C(=O)N1C[C@H](O)C[C@H]1C(=O)NCc1ccc(Cl)cc1N1CCN(CCCc2ccc(C(=O)N[C@H]3C(C)(C)[C@H](Oc4ccc(C#N)c(Cl)c4)C3(C)C)cc2)CC1)N1Cc2ccccc2C1=O .
Data returned: > 501 nM

Data request: Provide Androgen Receptor (Homo sapiens) DC50 reading for Cc1ncsc1-c1ccc([C@H](C)NC(=O)[C@@H]2C[C@@H](O)CN2C(=O)[C@H](NC(=O)CN2CCN(CCCc3ccc(C(=O)N[C@H]4C(C)(C)[C@H](Oc5ccc(C#N)c(C#N)c5)C4(C)C)cc3)CC2)C2COC2)cc1 .
Data returned: > 501 nM

Data request: Provide Androgen Receptor (Homo sapiens) DC50 reading for CCO/N=C(\CCCCC(=O)N[C@H](C(=O)N1C[C@H](O)C[C@H]1C(=O)N[C@@H](C)c1ccc(-c2scnc2C)cc1)C(C)(C)C)CCCc1ccc(C(=O)N[C@H]2C(C)(C)[C@H](Oc3ccc(C#N)c(Cl)c3)C2(C)C)nc1 .
Data returned: 51 to 500 nM

This collection of values is drawn from patent US11427548B2.
